The reported measurements were obtained from ChEMBL document CHEMBL1140319.

molecular target: Transient receptor potential cation channel subfamily V member 1 (Homo sapiens); assay: Inhibition of 100 nM capsaicin effect on intracellular [Ca2+] concentration in HEK293 cells expressing human TRPV1; format: cell-based
Sequence (Q8NER1 whole entry): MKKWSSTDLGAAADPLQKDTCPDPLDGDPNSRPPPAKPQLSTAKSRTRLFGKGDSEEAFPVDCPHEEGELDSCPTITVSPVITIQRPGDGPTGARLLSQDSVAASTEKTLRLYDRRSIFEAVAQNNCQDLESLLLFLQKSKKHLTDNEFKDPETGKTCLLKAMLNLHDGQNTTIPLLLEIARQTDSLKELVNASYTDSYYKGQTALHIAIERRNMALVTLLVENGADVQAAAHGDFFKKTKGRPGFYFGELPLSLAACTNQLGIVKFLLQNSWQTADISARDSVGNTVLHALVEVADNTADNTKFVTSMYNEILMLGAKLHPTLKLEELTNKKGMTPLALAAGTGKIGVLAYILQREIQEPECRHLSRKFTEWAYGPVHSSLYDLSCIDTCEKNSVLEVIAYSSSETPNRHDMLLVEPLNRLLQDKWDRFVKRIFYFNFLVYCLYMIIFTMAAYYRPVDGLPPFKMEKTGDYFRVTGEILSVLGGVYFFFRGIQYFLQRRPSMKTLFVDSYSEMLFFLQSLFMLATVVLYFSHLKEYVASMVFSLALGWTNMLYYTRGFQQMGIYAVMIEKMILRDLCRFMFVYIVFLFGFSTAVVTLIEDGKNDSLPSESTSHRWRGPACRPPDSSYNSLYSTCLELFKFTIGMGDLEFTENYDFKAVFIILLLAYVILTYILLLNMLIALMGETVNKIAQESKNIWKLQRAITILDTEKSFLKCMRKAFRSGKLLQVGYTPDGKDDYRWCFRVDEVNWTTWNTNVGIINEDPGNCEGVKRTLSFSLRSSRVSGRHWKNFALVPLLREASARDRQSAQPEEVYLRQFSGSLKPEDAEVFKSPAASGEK
experimental.readout: log10 of IC50 (log10 of the value in µM)
Please interpret these as log10 of IC50 where IC50 is in µM.

According to the records, this compound Oc1cc2c(cc1O)CN(C(=S)NCCc1ccc(Cl)cc1)CCC2 [CAPSAZEPINE] displays log10 of IC50 of -1.25

Short answer for `CCCCCCCCC(=O)NCc1ccc(O)c(OC)c1[N+](=O)[O-]` : log10 of IC50 was 1.04

The compound listed as `CCCCCCCCC(=O)NCc1ccc(O)c(OC)c1NC(C)=O` has a reported log10 of IC50 of 0.98

Measured log10 of IC50 of `CCCCCCCCC(=O)NCc1cc(I)c(O)c(OC)c1` : -0.90

Note to self: log10 of IC50 recorded for `C=C(C)[C@]12C[C@@H](C)[C@@]3(OCc4ccccc4)[C@@H](C=C(COC(=O)Cc4cc(I)c(O)c(OC)c4)C[C@]4(O)C(=O)C(C)=C[C@@H]34)[C@H]1OCO2` was -3.40

The recorded log10 of IC50 for entry `CCCCCCCCC(=O)NCc1cc(Cl)c(O)c(OC)c1` equals -0.20

// `CCCCCCCCC(=O)NCc1cc(OC)c(O)cc1Br` : log10 of IC50 value = -1.79

compound `CCCCCCCCC(=O)NCc1cc(OC)c(O)cc1I` , log10 of IC50 observed: -2.00

// recorded log10 of IC50 for `CCCCCCCCC(=O)NCc1cc(OC)c(O)cc1Cl` : -1.30

Kindly note the recorded log10 of IC50 for `CCCCC/C=C/C/C=C/C/C=C/C/C=C/CCCC=O` , which is -1.29

Per the record, `CCCCCCCCC(=O)NCc1cc(Br)c(O)c(OC)c1` has log10 of IC50 of -0.60
